Hey, just so you know, these numbers are from PubChem BioAssay.

assay: Plasmodium falciparum growth inhibition, primary screen, strain 3D7, DAPI fluorescence, 100 nL (AID 1184);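 further: parasites grown inside human red blood cells in medium with human serum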; conditions: P. falciparum 3D7 growth, 3 d, higher = more signal
property.label: z-score
Reply: number alone, nothing else.

Take a look at these entries with their results.
{"smiles.structure": "C[C@]1(C(=O)NCCN2CCOCC2)c2ccccc2C(=O)N(Cc2ccc(OC(F)(F)F)cc2)[C@H]1c1ccc(CO)cc1", "z-score": -1.08}
{"smiles.structure": "CN(C)CCCNC(=O)[C@@H]1c2ccccc2C(=O)N(Cc2ccc(OC(F)(F)F)cc2)[C@H]1c1ccc(CO)cc1", "z-score": -1.9}

Exam item: Looking for the measured z-score of C=C(CCCC)/C(=C/C[C@@H](OC(C)=O)c1ccc(CO)o1)c1cc(C(=O)OC)ccc1OC , can you help?
Marked response: -0.597

Exam item: Continue with CN(C)CCCCNC(=O)[C@H]1C[C@H]2C(=O)N[C@@H](CCCCN(C)C)C(=O)N2[C@H]1c1cccc(OCCO)c1
Marked response: 0.649

----------
test system: Sam68 (KHDRBS1); experiment: Sam68 small-molecule binders, primary screen, biochemical, small-molecule microarray, 635 nm fluorescence (AID 1125); conditions: small-molecule microarray binding, higher = more signal;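 further: score merges 667 nm channel intensity with signal to noise over triplicate slides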
composite z-score values by entry
Reply: number alone, nothing else.

Take a look at these entries with their results.
{"compound": "COc1cc2c(cc1OC)CN(C(=O)[C@H]1[C@@H]3C(=O)O[C@@H](c4ccccc4)[C@@H](c4ccccc4)N3[C@@H](c3ccc(OCCO)cc3)[C@]13C(=O)Nc1ccc(C#CC4(O)CCCCCC4)cc13)CC2", "measured.target": "Sam68 (KHDRBS1)", "composite z-score": 1.29}
{"compound": "COC(=O)[C@@]1(Cc2ccc(F)cc2)[C@H]2c3cc(C(=O)N4CCCC4)n(CCF)c3C[C@H]2CN1C(=O)c1ccccc1", "measured.target": "Sam68 (KHDRBS1)", "composite z-score": 0.37}
{"compound": "O=C(CS)NCCCCCCNC(=O)[C@H]1C[C@H]2C(=O)N[C@@H](Cc3ccccc3)C(=O)N2[C@H]1c1cccc(OCCO)c1", "measured.target": "Sam68 (KHDRBS1)", "composite z-score": 1.29}
{"compound": "CC(C)C[C@@H]1NC(=O)[C@H]2C[C@@H](C(=O)NCCCCCC[N+](C)(C)C)[C@@H](c3cccc(OCCO)c3)N2C1=O", "measured.target": "Sam68 (KHDRBS1)", "composite z-score": 0.374}
{"compound": "CC(C)(C)OC(=O)CC[C@]1(C(=O)NCCN2CCOCC2)N=C(c2ccc(OCCCO)cc2)O[C@H]1c1ccccc1N=[N+]=[N-]", "measured.target": "Sam68 (KHDRBS1)", "composite z-score": 1.31}

Exam item: Look up composite z-score with Sam68 (KHDRBS1) for this compound: CC(C)CN1C(=O)[C@@]2(c3ccc([N+](=O)[O-])cc3)CC(=O)N(CC34CC5CC(CC(C5)C3)C4)[C@@H]2c2ccc(CO)cc21
Marked response: -0.772

Exam item: Continue with COCCOC(=O)N1C(=O)[C@@]2(c3ccccc31)[C@H](C(=O)N1CCN(c3ncccn3)CC1)[C@H]1C(=O)O[C@H](c3ccccc3)[C@H](c3ccccc3)N1[C@@H]2c1ccc(OCCO)cc1
Marked response: 1.12

Exam item: Continue with CCOC(=O)C[C@H]1[C@H](OC(=O)c2ccccc2-c2ccccc2)[C@@H](NC(=O)CC(C)C)c2cc(OCCCO)ccc2N1C(=O)c1ccc2ccccc2n1
Marked response: 0.569

Exam item: Continue with CC(=O)NCCCC[C@@H]1NC(=O)[C@@H]2C[C@H](C(=O)O)[C@H](c3ccc(O)cc3)N2C1=O
Marked response: -1.04

Exam item: Continue with CN(C)CCCNC(=O)[C@@]1(C)c2ccccc2C(=O)N(Cc2cc(C(F)(F)F)cc(C(F)(F)F)c2)[C@H]1c1ccc(CO)cc1
Marked response: -0.546

Exam item: Continue with Cc1ccc(S[C@]2(C(=O)NC(C)C)CC(=O)N(C3Cc4ccccc4C3)[C@@H]2c2ccc(CO)cc2I)cc1
Marked response: 0.318

Exam item: Continue with [N-]=[N+]=NCc1ccccc1C[C@]1(C(=O)NCC(O)CO)N=C(c2ccc(OCCCO)cc2)O[C@H]1c1ccccc1CN=[N+]=[N-] (stereo partly drawn)
Marked response: 1.12

Exam item: Continue with CCC[C@@H]1C[C@@]1(CCC)[C@@H](NP(=O)(c1ccccc1)c1ccccc1)c1ccc(Cl)cc1
Marked response: 0.179

----------
test: basal RPMI8226 viability, no added stimulus, profiling panel, cell-based, calcein-AM fluorescence, 48 h, PK04 Diversity Set (AID 1166); conditions: RPMI8226 myeloma viability, higher = more signal;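 further: cells grown under basal conditions without added stimulus; test concentration not given here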
Friendly reminder: z-score below -0.6 is fulfilled, at or above is not fulfilled.

{"molecule": "C=CCOC(=O)[C@H]1[C@@H]2C(=O)O[C@@H](c3ccccc3)[C@@H](c3ccccc3)N2[C@@H](c2ccc(OCCOC(=O)[C@H]3C[C@H]4C(=O)N[C@@H](Cc5ccccc5)C(=O)N4[C@H]3c3ccc(O)cc3)cc2)[C@]12C(=O)Nc1ccc(I)cc12", "assigned.class": "not fulfilled"}

Exam item: Identify whether the molecule COCCCNC(=O)[C@@]1(Sc2ccc(C)cc2)CC(=O)N(Cc2cc(C(F)(F)F)cc(C(F)(F)F)c2)[C@@H]1c1ccc(CO)cc1 records z-score below -0.6.
Marked response: not fulfilled

Exam item: Continue with CCCCN1CC=CC23O[C@@H]4C=CCOC(=O)[C@@H]4[C@H]2C(=O)N(CCCO)[C@@H]3C1=O (stereo partly drawn)
Marked response: not fulfilled

Exam item: Continue with CC(=O)n1cc(C(O)C2C=CC3C(=O)N(Cc4ccccc4)C(=O)C3N2n2cnnc2)c2ccccc21 (stereo not drawn)
Marked response: not fulfilled

----------
biological target: Fibroblast growth factor 2 (Homo sapiens); assay: FGF2 binders on small-molecule microarrays, primary screen, biochemical, small-molecule microarray, 635/667 nm fluorescence (AID 1133); details: small-molecule microarray binding, FGF2, fluorescence 635/667; higher = more signal
property.label: composite z-score

{"molecule": "COCCOC(=O)N1C(=O)[C@@]2(c3cc(C#Cc4ccc(OC)cc4)ccc31)[C@H](C(=O)N1CCCCCCC1)[C@H]1C(=O)O[C@H](c3ccccc3)[C@H](c3ccccc3)N1[C@@H]2c1ccc(O)cc1", "property.label": "composite z-score", "data.value": 0.541}
{"molecule": "COC(=O)C1(Cc2ccccc2)C=C2C(=C(c3ccccc3)C(=O)C2C)CN1 (stereo not given)", "property.label": "composite z-score", "data.value": 0.404}
{"molecule": "COC(=O)[C@@]1(Cc2ccccc2)[C@H]2c3cc(C(=O)N4CCCC4)[nH]c3C[C@H]2CN1C(=O)c1ccccc1", "property.label": "composite z-score", "data.value": -0.757}
{"molecule": "COCCOC(=O)N1C(=O)[C@@]2(c3cc(C#Cc4ccc(OC)cc4)ccc31)[C@H](C(=O)N1CCN(c3ncccn3)CC1)[C@H]1C(=O)O[C@H](c3ccccc3)[C@H](c3ccccc3)N1[C@@H]2c1ccccc1OCCO", "property.label": "composite z-score", "data.value": 0.238}
{"molecule": "O=C1OCC=C[C@H]2OC34C=CCN(c5ccc(Cl)cc5)C(=O)[C@H]3N(CCCCCO)C(=O)[C@@H]4[C@@H]12 (stereo not given in full)", "property.label": "composite z-score", "data.value": -0.994}
{"molecule": "C=CCOC(=O)[C@@H]1[C@H]2C(=O)O[C@H](c3ccccc3)[C@H](c3ccccc3)N2[C@H](c2ccc(OCCOC(=O)[C@H]3C[C@H]4C(=O)N[C@@H](CCCCNC(C)=O)C(=O)N4[C@H]3c3cccc(OCCO)c3)cc2)[C@@]12C(=O)Nc1ccc(I)cc12", "property.label": "composite z-score", "data.value": 1.45}
{"molecule": "COCC(=C=CC[C@H](O)c1cccc(OCCO)c1)C[C@H](O)c1ccccn1", "property.label": "composite z-score", "data.value": 0.89}
{"molecule": "CC(C)CNC(=O)[C@@]1(c2ccc([N+](=O)[O-])cc2)CC(=O)N(C2CCCCC2)[C@@H]1c1ccc(CO)cc1I", "property.label": "composite z-score", "data.value": 0.669}
{"molecule": "CC1CC/C=C\\[C@H]2OC34C=CCN(CCN5CCOCC5)C(=O)[C@H]3N(CCO)C(=O)[C@@H]4C2C(=O)O1 (stereo not given in full)", "property.label": "composite z-score", "data.value": -0.0989}
{"molecule": "C[C@H]1ON(c2ccc(C(=O)OC(C)(C)C)cc2)[C@@H](c2ccc(O)cc2)[C@@H]1C(=O)N1C(=O)OC[C@@H]1c1ccccc1", "property.label": "composite z-score", "data.value": 1.4}

Exam item: Looking for the measured composite z-score of CCCC[C@@H]1C[C@H]1[C@@H](NC(=O)c1ccccc1)c1ccc(Cl)cc1 , can you help?
Marked response: -1.9

Exam item: Continue with C=C(CCCC)C(=O)CC[C@@H](OC(=O)c1cccnc1)c1ccccc1OCCO
Marked response: 1.34

Exam item: Continue with CN(C)CCCCNC(=O)[C@H]1C[C@H]2C(=O)N[C@@H](CCCCN(C)C)C(=O)N2[C@H]1c1cccc(OCCO)c1
Marked response: 1.23

Exam item: Continue with O=C1O[C@@H](c2ccccc2)[C@@H](c2ccccc2)N2[C@@H](c3ccccc3OCCO)[C@]3(C(=O)Nc4ccc(C#CC5=CCCCC5)cc43)[C@@H](C(=O)NC[C@H](O)c3ccccc3)[C@H]12
Marked response: 1.51

Exam item: Continue with O=C1NCC(=O)N2[C@@H]1C[C@@H](C(=O)O)[C@H]2c1ccc(O)cc1
Marked response: 1.9
